Test system: HCT-116
Assay: NCI tumour cell line growth inhibition, 48 h
Active and inactive are the calls of the source. Rule as the data show it: active = GI50 up to about 1.1 µM and inactive = higher.
ASSAY READOUT: GI50

COMPOUND	ASSAY READOUT	VALUE
O=C(N/N=C/C=C/c1ccc([N+](=O)[O-])o1)c1ccc(Br)s1	GI50	3.48 µM (inactive)
CC(C)(C)c1cc(C2COC(c3cc(C(C)(C)C)c(O)c(C(C)(C)C)c3)CO2)cc(C(C)(C)C)c1O (stereo not drawn)	GI50	51.6 µM (inactive)

Please examine the following record next.
compound COC1(OC)C2(Cl)C(Cl)=C(Cl)C1(Cl)C1C2C2CC1(C(=O)O)c1ccccc12 (stereo not drawn) , GI50 observed: 17.5 µM (inactive)

====

Tested on: U-251
Test: NCI tumour cell line growth inhibition, 48 h
The source made the active and inactive calls. Rule as the data show it: active = GI50 up to about 1.1 µM and inactive = higher.
ASSAY READOUT: GI50

COMPOUND	GI50
Oc1ncnc2c1nnn2CCCCCCCCCCCCn1nnc2c(O)ncnc21	21.5 µM (inactive)

# GI50 (compound: C=C1CC(Cn2ccc(=O)[nH]c2=O)(c2ccc(Cl)cc2)OC1=O (centres undefined) ) is 17.7 µM (inactive)

For reference, reported GI50 for `Cc1cnc2cc(Cl)ccc2c1SCC(=O)O` stands at > 100 µM (inactive)

====

GI50 data for HCT-15 follow.

The reported HCT-15 GI50 of `O=C1OC(c2ccccc2)=N/C1=C\c1ccc(Cl)cc1` is > 100 µM

HCT-15 data for `CCCCCC#CCOC(=O)C(=[N+]=[N-])P(=O)(c1ccccc1)c1ccccc1` ; its GI50: > 10 µM

====

Test system: OVCAR-3
Assay: NCI tumour cell line growth inhibition, 48 h
The source made the active and inactive calls. No stated cut-off is given here; in the data, active = GI50 up to about 1.1 µM and inactive = higher.
Tick one outcome: active, inactive

MOLECULE	TARGET ENTITY	CLASS LABEL
Oc1ncnc2c1nnn2CCCCCCCCCCCCn1nnc2c(O)ncnc21	OVCAR-3	inactive
O=C1CSC(=O)/C1=C\NNc1nc2ccccc2o1	OVCAR-3	inactive
CCOC(=O)c1c(N2CCOCC2)[nH]c(=O)c(C(c2c(O)c(C(=O)OCC)c(N3CCOCC3)[nH]c2=O)C(C)C)c1O	OVCAR-3	inactive
NC(=O)C1(c2ccccc2)Nc2ccccc2S1 (stereo unspecified)	OVCAR-3	inactive
C/C(CC(=O)Nc1cccc(C)c1C)=N\NC(N)=S	OVCAR-3	inactive

// next entry
Look up the recorded call for `N=C(N)N/N=C/c1c(-c2ccc([N+](=O)[O-])cc2)nc2sc(Cl)cn12` in this test. inactive

====

System: TK-10
Assay: NCI tumour cell line growth inhibition, 48 h
Activity calls are given as the source filed them. No stated cut-off is given here; in the data, active = GI50 up to about 1.1 µM and inactive = higher.
Answer with one of the outcomes True for active, False for inactive

Previously resolved entries follow.
MOLECULE	CLASS LABEL
COc1cccc(/N=N/N2CCCC2)c1	False
CC1=NN(c2nc(N)nc(COCc3nc(N)nc(N4N=C(C)CC4(C)C)n3)n2)C(C)(C)C1	False
CC(=O)/C(=C\I)c1ccccc1	False

What classification did CC(C)[C@]12O[C@H]1[C@@H]1O[C@@]13[C@@]1(C)CCC4=C(COC4=O)[C@@H]1C[C@@H]1O[C@@]13C2=O [TRIPTONIDE] end up with in this test? True

Which outcome did this test record for the molecule `[O-][n+]1ccccc1Sc1nc(Sc2cccc[n+]2[O-])nc(Sc2cccc[n+]2[O-])n1` ? False

Hi, sorry to bother you, what did the test record for `O=S(=O)(/C=C/C(=C/c1ccccc1)S(=O)(=O)c1ccccc1)c1ccccc1` ? False

Called result for `Cc1c(-c2ccc(O)cc2)n(CCCCCCNCCOC(=O)NCCCc2ccc(N(CCCl)CCCl)cc2)c2ccc(O)cc12` False

// param item: COc1ccc2c(=O)c3ccoc3n(CC=C(C)C)c2c1 [ACROPHYLLINE] ; yields the recorded call False

What call does the record list for `C[C@]12CC[C@H]3[C@@H](CC=C4C[C@@H](O)CC[C@@]43C)[C@@H]1CC[C@@H]2N(CCO)CCO` ? False

Status in this test for `CC(C)[C@H]1CO[C@]2(C)[C@@H]3CN(Cc4ccccc4)C[C@@H]3C(=O)N12` ? False

Record request — test call for `CC1=NC(=Cc2cc(Br)cc(Br)c2)C(=O)N1n1c(-c2ccccc2)nc2ccccc2c1=O` False

Query: recorded result category for COC1(C2c3ccccc3CCN2C(=O)OC(C)(C)C)C(=O)C(c2ccccc2)=C1N(C)C (stereo unspecified) in this test False

Record request — test call for O=C(c1ccccc1)C(c1ccccc1)C1(O)C(=O)Nc2c(Cl)ccc(Cl)c21 (stereo unspecified) False
